Tested on: c-Abl (mouse);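 note: 11-residue human phosphosite peptides and single-mutation variants displayed on the E. coli surface, counted by deep sequencing, each peptide's frequency after selection divided by its frequency in the unselected input library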;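 note: frequency after pTyr selection over input frequency; kinase dosed for 20-30% of maximal phosphorylation in three min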
METHOD: phosphorylation enrichment, bacterial display (enrichment ratio); higher = better substrate or ligand; peptides without Tyr show the background
Classification field: Met = phosphorylation enrichment at or over 1; Not met = phosphorylation enrichment under 1.

q: Assess whether reported phosphorylation enrichment for SRIWVYNHYRC [BRCA2_Y2621_W2626C] sits at 1 or higher.
a: Not met

q: Entry REEKNYKHKET [BCLAF1_Y459_L461H] : is its phosphorylation enrichment no less than 1?
a: Not met

q: Given the entry KKHIPYREHKS [CSNK1G1_Y205] , answer whether its phosphorylation enrichment meets or surpasses 1.
a: Met

q: Exam item: decide whether the reported phosphorylation enrichment for STILLYHIMAW [GPR143_Y157] is at least 1.
a: Met

q: Does the reported phosphorylation enrichment for ATDLAYFLVCK [ASL_Y375_R379C_YF] fall at or above the 1 mark?
a: Met
